Value source: a melting point compilation (Tetko et al.; mined from patent text by program, amines drawn as free bases though some values may be those of a salt)

observation.type: melting point

INSERT INTO assay_data (molecule, observation_type, observed_value) VALUES
  ('CCOP(=O)(Cc1ccc(C2=NCCO2)cc1)OCC', 'melting point', '65 °C'),
  ('CS(=O)(=O)Cc1cc(C(O)CNCCCCCCNCC(O)c2ccc(OCc3ccccc3)c(CS(C)(=O)=O)c2)ccc1OCc1ccccc1 (centres undefined)', 'melting point', '146 to 148 °C'),
  ('COc1cnn(-c2cc(F)c(C#N)cc2F)c(=O)c1Cl', 'melting point', '182 °C'),
  ('CC(C)Cn1cnc2c(N)nc3ccc(-c4cccnc4)cc3c21', 'melting point', '244 to 246 °C'),
  ('Cc1nc(N2CCN(Cc3ccc(F)cc3)C2=O)sc1C(=O)NCc1ncccn1', 'melting point', '205 to 207 °C'),
  ('CCOc1ccc(Oc2ccc(OCc3ccccc3)cc2)c([N+](=O)[O-])c1', 'melting point', '96 to 96.5 °C'),
  ('COC(=O)C1=C(CF)NC(C)=C(C(=O)OC2CCCC2)C1c1cccc([N+](=O)[O-])c1C (centres undefined)', 'melting point', '167 to 168 °C'),
  ('COC(=O)CCC#Cc1cc(F)cc([N+](=O)[O-])c1', 'melting point', '111 to 112 °C'),
  ('CCOC(=O)CC1CC2C(CCC3(C)C(=O)CCC23)c2ccc(O)cc21 (centres undefined)', 'melting point', '138 °C'),
  ('CC1(C)CC(N2CCCCCC2=O)CC(C)(C)N1', 'melting point', '113 to 117 °C'),
  ('FC(F)(F)COc1ccc(-c2cc(C(F)(F)F)n3cnc(-c4ccncc4)c3n2)cc1C(F)(F)F', 'melting point', '269 °C'),
  ('CC1(C)CCC(C)(C)c2cc(N)c(N)cc21', 'melting point', '185 °C'),
  ('Cn1c(=O)c(C(=O)O)c(-c2ccccc2)c2cc(Cl)ccc21', 'melting point', '242 to 243 °C'),
  ('COc1ccc(CNc2nc(CCC(=O)O)nc3sc4c(c23)CCCC4)cc1Cl', 'melting point', '135 °C'),
  ('Cc1ccc(Sc2ccc(C)cc2)cc1', 'melting point', '56.5 °C'),
  ('CCC(=O)N1CCN(C(=O)OC2C3=C(SCC(OC)CS3)C(=O)N2c2ccc(Cl)cn2)CC1 (centres undefined)', 'melting point', '160 °C'),
  ('O=C1c2ccccc2S(=O)(=O)N1C1CCN(Cc2c[nH]c3ccccc23)CC1', 'melting point', '214 to 215 °C'),
  ('O=C(NO)[C@H](CNS(=O)(=O)c1ccc(OCc2ccc3ccccc3c2)cc1)N1CCCCC1', 'melting point', '106 °C'),
  ('CN(Cc1ccc(NC(=O)C2=Cc3cc(-c4cc5ccccc5o4)ccc3S(=O)(=O)CC2)cc1)C1CCOCC1', 'melting point', '234 to 235 °C'),
  ('Oc1ccc(SC2CC3CC(Sc4ccc(O)cc4)C2C3)cc1 (centres undefined)', 'melting point', '142 to 146 °C'),
  ('Nc1cccc(SC2SCC(O)C(O)C2O)c1 (centres undefined)', 'melting point', '128 to 132 °C'),
  ('CN(c1ccc(O)cc1)S(=O)(=O)c1ccc(C(F)(F)F)cc1', 'melting point', '145 to 146 °C'),
  ('COc1cc([N+](=O)[O-])c(N)cc1C(N)=O', 'melting point', '250 to 257 °C'),
  ('O=C(N[C@H](Cc1ccccc1C(F)(F)F)[C@@H](O)c1ccc(F)cc1)C1CCCCC1 (racemic)', 'melting point', '216 to 217 °C');
